A collection of binders and their measured pKd
# system-tested: T1, RADIL, Q96JH8
# T1 sequence (Q96JH8 971-1071, limits assumed, looked up): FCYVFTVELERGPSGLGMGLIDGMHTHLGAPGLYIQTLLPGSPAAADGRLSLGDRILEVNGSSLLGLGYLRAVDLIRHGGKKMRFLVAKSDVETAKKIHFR
# assay-notes: holdup assay
# Design: key: below the threshold = too weak to quantify, mostly under pKd 3.1 to 4
# run-conditions: plain residues with an end cap or a label only (N-terminal biotin on a linker: ado-ado)
Give only the figure.

Query block: // pKd lookup, key: VDSTVKVWTC [TRAF7, Q6Q0C0]
Result block: 4.2

Query block: Do the same for TACCHSETVV [TGFA, P01135] please
Result block: 4.35

Query block: Record: QGLAERISVL [PRKD2, Q9BZL6]
Result block: 3.99

Query block: Please answer likewise for QMNQTLPVQV [EPHB3, P54753]
Result block: 4.44

Query block: Repeat with YNNCLEILRV [DCAF7, P61962]
Result block: 5.14
